- TEST TARGET: PARP-1 F2 K134I (Homo sapiens, UniProt P09874 103-214, K134I)
- Sequence (P09874 103-214 K134I): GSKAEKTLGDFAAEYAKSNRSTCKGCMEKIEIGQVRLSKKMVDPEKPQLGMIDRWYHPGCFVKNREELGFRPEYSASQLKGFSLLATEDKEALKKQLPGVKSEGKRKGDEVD
- PROTOCOL: fluorescence anisotropy; 25 mM NaCl, one-site fit; 50 mM Tris-HCl pH 7.0, 150 uM ZnSO4, 4 mM DTT, 25 C; NaCl 0-200 mM (T2, as in cof; 10 nM DNA) or 25 mM (T3 mutants; 25 nM DNA)
- APPLIED CONDITIONS: protein: recombinant; label: fluorescein-dT at T8; single-chain dumbbell, 18 bp with central nick, two tetraloops
pKd: −log10 of the molar value.
RECORDED ENDPOINT: pKd

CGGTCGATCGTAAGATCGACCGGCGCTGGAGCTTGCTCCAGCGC (structured_DNA, 5'-phosphate) [44-nt nicked dumbbell, 5'-phosphate, fluorescein-dT]	5.48
